Here the recorded Kd is given for each entry.
EXPERIMENTAL SYSTEM: human TYK2 (JH2domain-pseudokinase) (Homo sapiens (Human))
TEST DESCRIPTION: TYK2 JH2 domain binding assay (KINOMEscan)

Answered cases to consult:
{"columns": ["SMILES NOTATION", "EXPERIMENTAL SYSTEM", "Kd"],
 "data": [
  ["Cc1nc2cnc3cn2c1C(=O)N[C@H](C)COCc1cc(c2nnn(C)c2c1)N3", "human TYK2 (JH2domain-pseudokinase) (Homo sapiens (Human))", "1000 to 10000 nM"],
  ["CNc1cc2nn3c(cnc13)C(=O)N[C@H](C)CNc1ccnc3ccc(cc13)N2", "human TYK2 (JH2domain-pseudokinase) (Homo sapiens (Human))", "< 10 nM"],
  ["CNc1nc2nc3c(n(C)nc13)C(=O)N[C@H](C)COCc1cc(c3nnn(C)c3c1)N2", "human TYK2 (JH2domain-pseudokinase) (Homo sapiens (Human))", "< 10 nM"]
]}

For the compound `CNc1cc2nc3c(cnn13)C(=O)N[C@H](C)[C@H](C)OCc1cc(c3nnn(C)c3c1)N2` , what Kd is on record?
< 10 nM

And the next one, `CNc1nc2cn3c(c(C)nc13)C(=O)N[C@H](C)COCc1cc(c3nnn(C)c3c1)N2` ?
1000 to 10000 nM

----------
In this section we review reported pKd values for a set of molecules.
EXPERIMENTAL SYSTEM: human TYK2 (JH2domain-pseudokinase) (Homo sapiens (Human), UniProt P29597)
Sequence (P29597 556-888): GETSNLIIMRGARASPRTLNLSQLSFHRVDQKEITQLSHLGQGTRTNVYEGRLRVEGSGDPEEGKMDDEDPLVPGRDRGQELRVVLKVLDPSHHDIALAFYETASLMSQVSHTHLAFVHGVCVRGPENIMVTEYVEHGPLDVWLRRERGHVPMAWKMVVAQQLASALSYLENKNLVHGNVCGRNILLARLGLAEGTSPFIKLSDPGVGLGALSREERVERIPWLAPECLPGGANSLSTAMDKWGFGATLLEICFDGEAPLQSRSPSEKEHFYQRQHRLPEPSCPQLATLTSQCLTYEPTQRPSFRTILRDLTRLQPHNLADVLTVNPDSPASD
TEST DESCRIPTION: TYK2 JH2 domain binding assay (KINOMEscan)
pKd: −log10 of the molar value.

{"columns": ["SMILES NOTATION", "pKd"],
 "data": [
  ["CNc1cc2nn3c(cnc13)C(=O)N[C@H](C)COc1cccc3ccc(nc13)N2", "> 8.00"],
  ["Cc1nc2c(N)nc3cn2c1C(=O)N[C@H](C)COCc1cc(c2nnn(C)c2c1)N3", "6.00 to 8.00"],
  ["CNc1cc2nc3c(cnn13)C(=O)N[C@H](C(C)(C)O)COCc1cc(c3nnn(C)c3c1)N2", "> 8.00"]
]}

Recorded pKd for `CNc1cc2nc3c(cnn13)C(=O)N[C@H](C)COCc1cc(c3nnn(C)c3c1)N2` , please?
> 8.00

----------
EXPERIMENTAL SYSTEM: JAK3 JH1 (Homo sapiens (Human))
Sequence (P52333 822-1111): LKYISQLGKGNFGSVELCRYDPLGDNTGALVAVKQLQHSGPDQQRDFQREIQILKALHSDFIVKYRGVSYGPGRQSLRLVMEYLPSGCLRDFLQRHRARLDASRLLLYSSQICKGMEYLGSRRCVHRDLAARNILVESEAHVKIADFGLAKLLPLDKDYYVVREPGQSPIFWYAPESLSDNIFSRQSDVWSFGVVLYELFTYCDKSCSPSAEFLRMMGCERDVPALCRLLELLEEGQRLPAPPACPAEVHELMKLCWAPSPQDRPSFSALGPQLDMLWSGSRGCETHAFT
TEST DESCRIPTION: JAK3 JH1 binding (Kd, Table 2)
ASSAY CONTEXT: JH1 domain
OBSERVED PROPERTY: Kd

{"columns": ["COMPOUND", "EXPERIMENTAL SYSTEM", "RESULT"],
 "data": [
  ["CNc1cc2nn3c(cnc13)C(=O)N[C@H](C)COCc1cc(c3nn(C)nc3c1)N2 [Compound 6]", "JAK3 JH1 (Homo sapiens (Human))", "≥ 30 µM"],
  ["CNc1cc2nn3c(cnc13)C(=O)N[C@H](C)COCc1cc(c3c(c1)ncn3C)N2 [Compound 8]", "JAK3 JH1 (Homo sapiens (Human))", "10 to 30 µM"],
  ["CNc1cc2nn3c(cnc13)C(=O)N[C@H](C)COCc1cc(c3c(c1)nnn3C)N2 [Compound 1]", "JAK3 JH1 (Homo sapiens (Human))", "≥ 30 µM"],
  ["CNc1cc2nc3c(cnn13)C(=O)N[C@H](C)COCc1cc(c3c(c1)nnn3C)N2 [Compound 37]", "JAK3 JH1 (Homo sapiens (Human))", "≥ 30 µM"],
  ["CNc1cc2nc3c(cnn13)C(=O)N[C@H](C)COCc1cc(c3nnn(C)c3c1)N2 [Compound 33]", "JAK3 JH1 (Homo sapiens (Human))", "≥ 30 µM"]
]}

Suppose we examine the compound [2H]C1([2H])OC[C@@H](C)NC(=O)c2cnc3c(NC)cc(nn23)Nc2cc1cc1c2nnn1C [Compound 7] ; what Kd value has been reported?
10 to 30 µM

Try CNc1cc2nn3c(cnc13)C(=O)N[C@H](C)COCc1cc(c3nnn(C)c3c1)N2 [Compound 5] next.
≥ 30 µM

Ok, now CNc1cc2nc3c(cnn13)C(=O)N[C@H](C)COCc1cc(c3nn(C)nc3c1)N2 [Compound 34]
≥ 30 µM

----------
EXPERIMENTAL SYSTEM: human TYK2 (JH2domain-pseudokinase) (Homo sapiens (Human))
TEST DESCRIPTION: TYK2 JH2 domain binding assay (KINOMEscan)
Protocol: Binding constants for the compounds described herein against the JH2 domain were determined by the following protocol for a KINOMEscan® assay (DiscoveRx). […] The TYK2 (JH2domain-pseudokinase) fusion protein was labeled with a chimeric double-stranded DNA tag containing the NFkB binding site fused to an amplicon for qPCR readout, which was added directly to the expression extract (the final concentration of DNA-tag in the binding reaction is 0.1 nM). […]
OBSERVED PROPERTY: Kd

Example compounds with recorded Kd:
{"columns": ["COMPOUND", "RESULT"],
 "data": [
  ["CNc1cc2nn3c(cnc13)C(=O)N[C@H](C)COc1ccnc3ccc(cc13)N2", "< 0.01 µM"],
  ["CNc1cc2nn3c(cnc13)C(=O)N[C@H](C)COc1cncc3ccc(cc13)N2", "< 0.01 µM"],
  ["CNc1cc2nn3c(cnc13)C(=O)N[C@H](C)COc1cnnc3ccc(cc13)N2", "≥ 30 µM"],
  ["CNc1cc2nn3c(cnc13)C(=O)N[C@H](C)COCc1cc(c3c(c1)nnn3C)N2", "< 0.01 µM"],
  ["CNc1cc2nn3c(cnc13)C(=O)N[C@H](C)COCc1cc(c3c(cnn3C)c1)N2", "< 0.01 µM"]
]}

Identify the measured Kd of `COc1nc2cn3c(cnc13)C(=O)N[C@H](C)COCc1cc(c3nnn(C)c3c1)N2` for human TYK2 (JH2domain-pseudokinase) (Homo sapiens (Human)).
1 to 10 µM

Consider next the compound `CNc1cc2nn3c(cnc13)C(=O)N[C@H](C)CS(=O)(=O)Cc1cc(c3nnn(C)c3c1)N2` in the same way.
< 0.01 µM

Same read-out for CNc1cc2nc3c(cnn13)C(=O)NC(C(F)(F)F)COCc1cc(c3nnn(C)c3c1)N2 (centres unmarked) ?
< 0.01 µM

----------
EXPERIMENTAL SYSTEM: human TYK2 (JH2domain-pseudokinase) (Homo sapiens (Human), UniProt P29597)
TEST DESCRIPTION: TYK2 JH2 domain binding assay (KINOMEscan)
OBSERVED PROPERTY: Kd

Known results for compounds:
{"columns": ["SMILES NOTATION", "RESULT"],
 "data": [
  ["CNc1cc2nn3c(cnc13)C(=O)N[C@H](C)COCc1cc(c3nn(C)cc3c1)N2", "< 10 nM"],
  ["CNc1cc2nn3c(cnc13)C(=O)N[C@H](C)COc1cccc3ncc(cc13)N2", "< 10 nM"],
  ["C[C@@H]1COCc2cc(c3nnn(C)c3c2)Nc2cn3c(cnc3c(N)n2)C(=O)N1", "10 to 1000 nM"],
  ["CNc1cc2nc3c(cnn13)C(=O)N[C@H](C)[C@H](C)OCc1cc(c3c(c1)nnn3C)N2", "< 10 nM"]
]}

For `CNc1cc2nc3c(cnn13)C(=O)N[C@H](C)COCc1cc(c3c(c1)nnn3C)N2` , what is its reported Kd?
< 10 nM

Consider next the compound `CNc1cc2nn3c(cnc13)C(=O)N[C@H](C)COCc1cc(c3nn(C)nc3c1)N2` in the same way.
< 10 nM

Same for `COc1nc2cn3c(c(C)nc13)C(=O)N[C@H](C)COCc1cc(c3nnn(C)c3c1)N2`
10 to 1000 nM
